study.system: human NK1 receptor (Homo sapiens, UniProt P25103)
Construct: membrane suspension
Sequence (P25103 whole entry): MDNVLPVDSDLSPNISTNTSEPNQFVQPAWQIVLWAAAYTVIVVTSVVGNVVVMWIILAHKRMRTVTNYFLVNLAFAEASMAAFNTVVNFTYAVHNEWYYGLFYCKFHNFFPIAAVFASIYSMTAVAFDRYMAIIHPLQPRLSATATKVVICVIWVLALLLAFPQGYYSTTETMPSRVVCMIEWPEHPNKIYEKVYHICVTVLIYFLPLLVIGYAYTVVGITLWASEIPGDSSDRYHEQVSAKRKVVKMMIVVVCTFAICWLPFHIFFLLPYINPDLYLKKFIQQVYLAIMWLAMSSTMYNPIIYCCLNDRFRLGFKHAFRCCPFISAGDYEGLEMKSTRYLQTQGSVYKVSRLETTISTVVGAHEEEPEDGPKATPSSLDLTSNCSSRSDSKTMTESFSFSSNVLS
assay.details: NK1 receptor binding assay, displacement of [3H]substance P
condition.set: affinity to the NK-1 receptor; human NK1 receptors in CHO cells (Semliki virus expression system); [3H]substance P 0.6 nM
pKi: −log10 of the molar value.
readout: pKi

• CC(=O)c1ccc(-c2cc(-c3ccccc3C)c(C(=O)N(C)Cc3cc(C(F)(F)F)cc(C(F)(F)F)c3)cn2)s1 = 8.67

(A) Cc1ccccc1-c1cc(C2=CCNCC2)ncc1C(=O)N(C)Cc1cc(C(F)(F)F)cc(C(F)(F)F)c1
(B) C#Cc1cc(-c2ccccc2C)c(N(C)C(=O)C(C)(C)c2cc(C(F)(F)F)cc(C(F)(F)F)c2)cn1
(C) Cc1ccccc1-c1cc(N(O)CCO)ncc1N(C)C(=O)C(C)(C)c1cc(C(F)(F)F)cc(C(F)(F)F)c1
(D) Cc1ccccc1-c1cc(NC(=O)CO)ncc1N(C)C(=O)C(C)(C)c1cc(C(F)(F)F)cc(C(F)(F)F)c1
Ranking field: pKi; order: falling. Arrange the labels as the request states and list them.
C, A, D, B

Values were extracted from patent US6770637B2.
